// data source = PubChem BioAssay (NCATS)

Measured remaining parasite growth % (stronger effect = lower value), listed per entry.
assay: qHTS profiling for inhibitors of Plasmodium falciparum (3D7) proliferation (AID 743322);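 further: infected erythrocytes exposed to compound for 72 h before lysis; 100% = DMSO vehicle wells and 0% = 0.29 µM artemisinin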; details: P. falciparum 3D7 proliferation; at 28.7 µM (top of the series)
Could you give me the number in %? Just the number is fine.

The following compounds have reported results that may help.
cpd.smiles	unit.info	assay.value
COc1cc2ncnc(Nc3ccc(F)c(Cl)c3)c2cc1NC(=O)C=CCN1CCCCC1	%	-0.218
C1Cc2[nH]nc(-c3nn[nH]n3)c2C1	%	48.8
Cn1c(=O)n(-c2ccc(C(C)(C)C#N)cc2)c2c3cc(-c4cnc5ccccc5c4)ccc3ncc21	%	1.17

What the record says about `Cc1cc(Nc2cc(NC(=O)c3c(Cl)cccc3Cl)ccn2)nc(N)n1` : remaining parasite growth % (stronger effect = lower value) is 0.674

In plain terms, `CC(=O)SC[C@@H](C)C(=O)N1CCC[C@H]1C(=O)N[C@@H](Cc1ccccc1)C(=O)O` has a documented remaining parasite growth % (stronger effect = lower value) of 106

# remaining parasite growth % (stronger effect = lower value) of `CC(=O)OCC(=O)[C@@]1(O)[C@H](C)C[C@H]2[C@@H]3C=C(C)C4=Cc5c(cnn5-c5ccccc5)C[C@]4(C)[C@@H]3[C@@H](O)C[C@@]21C` = -0.774
